The entries below are paired with their reported relative growth.
Test system: Pseudomonas 6 (Pseudomonas sp.)
method notes: relative growth (AUC of 72 h growth curve relative to DMSO control, dAUC) (ratio); higher = more growth (less inhibition), active = hit call of the paper
settings: 20 µM
Please reply with the number alone, leaving off any unit.

CCOP(=S)(OCC)Oc1cc(C)nc(C(C)C)n1    1.12
Cc1cccc2sc3nncn3c12    1.1
CCc1cc(C)cc(CC)c1-c1c(OC(=O)C(C)(C)C)n2n(c1=O)CCOCC2    1.02
CC1(C)C(C=C(Cl)Cl)C1C(=O)OC(C#N)c1ccc(F)c(Oc2ccccc2)c1 (stereo not drawn)    1.03
Cc1cc(C)c(C2=C(OC(=O)CC(C)(C)C)C3(CCCC3)OC2=O)c(C)c1    1.2
CC(C)N1C(=O)c2ccccc2NS1(=O)=O    1.03

What measured relative growth goes with `CCOCN(C(=O)CCl)c1c(C)cccc1CC` ?
1.03

====

The entries below are paired with their reported relative growth.
Test system: Arthrobacter 3 (Arthrobacter sp.)
method notes: relative growth (AUC of 72 h growth curve relative to DMSO control, dAUC) (ratio); higher = more growth (less inhibition), active = hit call of the paper
settings: 20 µM
Please reply with the number alone, leaving off any unit.

These recorded examples may help you get a feel for the data.
COC(=O)N(OC)c1ccccc1COc1ccn(-c2ccc(Cl)cc2)n1    0.903
COCC(=O)N(c1c(C)cccc1C)[C@H](C)C(=O)OC    1.04
CNC(=O)ON=C(C)SC    0.971

What relative growth appears in the records for this molecule with Arthrobacter 3 (Arthrobacter sp.)? `O=C(Nc1ccccc1-c1ccc(Cl)cc1)c1cccnc1Cl`
0.869

Proceed to `N#C/N=C1\SCCN1Cc1ccc(Cl)nc1`
1.06

Proceed to CC1COC(Cn2cncn2)(c2ccc(Oc3ccc(Cl)cc3)cc2Cl)O1 (stereo unspecified)
0.348

====

Test system: Prolinoborus 1 (Prolinoborus fasciculus)
method notes: relative growth (AUC of 72 h growth curve relative to DMSO control, dAUC) (ratio); higher = more growth (less inhibition), active = hit call of the paper
settings: 20 µM
The entries below are paired with their reported relative growth.
Please reply with the number alone, leaving off any unit.

These recorded examples may help you get a feel for the data.
O=C(NC(=O)c1c(F)cccc1F)Nc1ccc(OC(F)(F)C(F)OC(F)(F)F)c(Cl)c1 (configuration not stated)    0.988
O=C(O)CNCP(=O)(O)O    0.991
N#Cc1cc(Br)c(O)c(Br)c1    0.996
COCC(=O)N(c1c(C)cccc1C)C(C)C(=O)OC (configuration not stated)    0.923
COP(=S)(OC)Oc1ccc(SC)c(C)c1    0.975

What measured relative growth goes with CC(COc1ccc(Oc2ccccc2)cc1)Oc1ccccn1 (configuration not stated) ?
1.03

Proceed to `O=C(Nc1ccc(F)cc1F)c1cccnc1Oc1cccc(C(F)(F)F)c1`
1.03

Proceed to `CC(C)OC(=O)Nc1cccc(Cl)c1`
0.976

Proceed to `COc1cc(OC)nc(NC(=O)NS(=O)(=O)c2ncccc2C(=O)N(C)C)n1`
0.999

Proceed to CCCC(Cn1cncn1)c1ccc(Cl)cc1Cl (configuration not stated)
0.988

Proceed to `CCc1nn(C)c(C(=O)NCc2ccc(Oc3ccc(C)cc3)cc2)c1Cl`
0.978

Proceed to `CSc1nnc(C(C)(C)C)c(=O)n1N`
0.951

Origin of values: the supplement of paper PMC12067926
